- targetSystem: WT DAT (Rattus norvegicus, UniProt P23977)
- Construct: expressed in transfected cells; host or cells: CHO-K1, stably transfected (G-418 selection); intact monolayers in A1 and A3, membranes in A5
- Sequence (P23977 whole entry): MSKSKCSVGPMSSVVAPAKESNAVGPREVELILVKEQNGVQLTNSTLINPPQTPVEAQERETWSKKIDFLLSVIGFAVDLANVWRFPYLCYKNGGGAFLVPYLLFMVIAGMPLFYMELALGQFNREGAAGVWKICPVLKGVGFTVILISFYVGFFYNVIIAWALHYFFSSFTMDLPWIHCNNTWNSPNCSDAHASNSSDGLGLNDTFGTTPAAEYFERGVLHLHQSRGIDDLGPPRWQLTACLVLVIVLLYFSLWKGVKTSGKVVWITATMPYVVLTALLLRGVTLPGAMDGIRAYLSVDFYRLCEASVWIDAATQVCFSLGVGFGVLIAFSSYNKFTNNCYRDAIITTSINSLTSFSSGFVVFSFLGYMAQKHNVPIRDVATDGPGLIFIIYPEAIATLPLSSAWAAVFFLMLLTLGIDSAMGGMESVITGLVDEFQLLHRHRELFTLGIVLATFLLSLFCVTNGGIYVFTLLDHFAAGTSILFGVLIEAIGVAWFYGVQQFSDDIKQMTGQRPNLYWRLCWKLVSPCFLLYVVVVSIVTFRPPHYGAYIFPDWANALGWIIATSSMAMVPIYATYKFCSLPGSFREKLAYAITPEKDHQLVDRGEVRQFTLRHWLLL
- experimentDescription: [3H]-dopamine uptake and uptake inhibition, CHO cells stably expressing WT DAT
- Type: cell-based
- experimentalContext: DAT substrates; CHO cells, WT DAT; 22° C., KRH buffer; mean ± standard error; read-out: Ki, inhibition of [3H]-DA uptake
measuredAttribute: pKi
# pKi is unitless: minus log10 of the molar concentration; print number only

Worked examples follow.
| compound | targetSystem | pKi |
| --- | --- | --- |
| NCCc1ccc(O)cc1 | WT DAT (Rattus norvegicus, UniProt P23977) | 5.77 |
| NC[C@H](O)c1ccc(O)c(O)c1 [Norepinephrine] | WT DAT (Rattus norvegicus, UniProt P23977) | 5.27 |

Known value: WT DAT (Rattus norvegicus, UniProt P23977) pKi of the compound NCCc1cccc(O)c1 equals 5.85
